# Tested on: NbGlk1(83-402) (Nicotiana benthamiana)
# method-summary: fluorescence anisotropy
# condition-details: with NbDBCP-T (1-414); DNA annealed in 150 mM NaCl, 15 mM Na citrate; binding buffer, pH and temperature not given in the material
property-name: Kd (nM)
Could you give me the number in nM? Just the number is fine.

// query Recorded Kd of CGGATATCCACGGATATCCACGGATATCCACGGATATCCACGGATATCCC (double strand) [FA-5/FA-6 concatenated GGATATCC GLK site duplex] , please.
// result 160

Just for reference, paper PMC7371201 is where these values come from.
